Would you kindly list Ki for each of these molecules?
assay.system: serotonin S2 receptor (Rattus norvegicus, UniProt P14842)
Construct: The receptor fraction prepared from the cortex was molten and suspended; from tissue; host or cells: cerebral cortex of SD rats (membrane fraction)
Sequence (P14842 whole entry): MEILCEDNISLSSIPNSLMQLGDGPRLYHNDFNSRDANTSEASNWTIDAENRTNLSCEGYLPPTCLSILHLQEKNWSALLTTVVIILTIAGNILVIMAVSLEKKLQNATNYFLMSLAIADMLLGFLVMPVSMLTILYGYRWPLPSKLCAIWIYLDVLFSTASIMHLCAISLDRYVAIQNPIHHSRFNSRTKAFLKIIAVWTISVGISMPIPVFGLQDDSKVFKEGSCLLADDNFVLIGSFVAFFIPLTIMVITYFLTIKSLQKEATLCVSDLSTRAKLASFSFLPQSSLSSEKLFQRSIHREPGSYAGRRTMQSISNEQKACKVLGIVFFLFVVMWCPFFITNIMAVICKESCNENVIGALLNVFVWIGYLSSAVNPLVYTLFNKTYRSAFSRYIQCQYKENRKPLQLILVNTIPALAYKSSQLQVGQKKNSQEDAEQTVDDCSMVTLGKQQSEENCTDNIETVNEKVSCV
test.summary: serotonin S2 receptor binding test ([3H] Ketanserin Binding Test)
Set-up: species or system SD rats
measurement.parameters: 1 nM [3H] Ketanserin, rat cortex, 37° C., 15 minutes
Procedure: The compounds of the present invention were subjected to each of serotonin S2 receptor binding test, dopamine D2 receptor binding test and adrenergic α1 receptor binding test. The following reagents were used in this test. These reagents and samples were each dissolved in 10% ethanol before use. […] The receptor fraction prepared from the cortex was molten and suspended by the use of a histocothrom. […] The binding detected in the presence of […] of Methylsergide was regarded as nonspecific binding. […]
Field: value (include unit after the number)

Observe how each entry below is paired with its result.
INSERT INTO measurements (molecule, result) VALUES
  ('CCCS(=O)(=O)Nc1cc(N2CCN(CC)CC2)cc(-c2ccccc2C#N)c1Cl', '8.86 nM'),
  ('CCCNc1cc(N2CCN(CC)CC2)cc(-c2ccccc2)c1OC', '148 nM');

// each molecule listed below needs its Ki
1. CCN1CCN(c2cc(-c3ccc(F)cc3C)c(Cl)c(S(=O)(=O)NC3CC3)c2)CC1
2. CCN1CCN(c2cc(NS(=O)(=O)CC)c(Cl)c(-c3ccccc3Cl)c2)CC1
3. CCCS(=O)(=O)Nc1cc(N2CCN(CC)CC2)cc(-c2ccccc2Cl)c1Cl
4. CC[C@@H](F)c1cc(N2CCN(C)CC2)cc(-c2ccccc2C)c1Cl
5. CCN1CCN(c2cc(C=O)c(OC)c(-c3ccccc3)c2)CC1

1. 13.2 nM
2. 12.4 nM
3. 3.36 nM
4. 37.9 nM
5. 380 nM

// input: 3 molecules below; output: Ki for each
1. CCC(F)c1cc(N2CCN(CCO)CC2)cc(-c2ccccc2C#N)c1Cl (single isomer, unassigned)
2. CCC(F)c1cc(N2CCN(CCCc3ccncc3)CC2)cc(-c2ccccc2C)c1Cl (stereo not drawn)
3. CCCCS(=O)(=O)Nc1cc(N2CCN(C)CC2)cc(-c2ccccc2Cl)c1Cl

["24.9 nM", "97.1 nM", "4.04 nM"]

Take each entry in turn and give its Ki.
1. CCCS(=O)(=O)c1cc(N2CCN(CC)CC2)cc(-c2ccccc2)c1Cl
2. CCN1CCN(c2cc(C(Cc3ccc(F)cc3)=NO)c(OC)c(-c3ccccc3)c2)CC1
3. COc1c(C(=O)Cc2ccccc2)cc(N2CCN(CCO)CC2)cc1-c1ccccc1
4. CCN1CCN(c2cc(CCC(C)=O)c(OC)c(-c3ccccc3)c2)CC1
5. CCCCC(F)c1cc(N2CCN(CC)CC2)cc(-c2ccccc2)c1OC (stereo not drawn)
6. CCC(F)c1cc(N2CCN(CCO)CC2)cc(-c2ccccc2Cl)c1Cl (stereo not drawn)
7. CCCc1cc(N2CCN(CC)CC2)cc(-c2ccccc2OC)c1OC
8. CCC(F)c1cc(N2CCN(C)CC2)cc(-c2ccccc2C)c1Cl (stereo not drawn)

1: 3.76 nM; 2: 19.3 nM; 3: 1.16 nM; 4: 151 nM; 5: 4.32 nM; 6: 51.2 nM; 7: 392 nM; 8: 8.27 nM
